Recorded platelets, Day 5 after modeling for the following compounds
- System: platelets (PLT)
- testMethodNotes: Cyclophosphamide-induced leukopenia in mice: platelets (PLT)
- Type: in vivo, Kunming mice
- conditionInfo: Experimental Example 3; 0.8 mg/kg
- Protocol: Further, in vivo experiments were carried out on the compounds involved in the present invention using animal models of cyclophosphamide-induced leukopenia in mice. […] The mice were killed on day 5 after the final lumbar injection of cyclophosphamide (i.e day 5 after modeling), and the leukocytes (WBC) and platelets (PLT) of the hemogram index were counted. […]

Previously resolved entries follow.
C[C@@H]1CC[C@]2(C(=O)O[C@@H]3O[C@H](CO)[C@@H](O)[C@H](O)[C@H]3O)CC[C@]3(C)C(=CC[C@@H]4[C@@]5(C)CC[C@H](O[C@@H]6OC[C@H](O)[C@H](O)[C@H]6O)C(C)(C)[C@@H]5CC[C@]43C)[C@@H]2[C@]1(C)O [Sample G-22, reference compound] :: 210.00 ± 119.38
CC1(C)CC[C@]2(C(=O)O[C@@H]3O[C@H](CO)[C@@H](O)[C@H](O)[C@H]3O)CC[C@]3(C)C(=CC[C@@H]4[C@@]5(C)CC[C@H](O[C@@H]6O[C@H](CO)[C@@H](O)[C@H](O)[C@H]6O)C(C)(C)[C@@H]5CC[C@]43C)[C@@H]2C1 :: 390.86 ± 203.71**★★
C[C@H]1[C@H](C)CC[C@]2(C(=O)O[C@@H]3O[C@H](CO)[C@@H](O)[C@H](O)[C@H]3O)CC[C@]3(C)C(=CC[C@@H]4[C@@]5(C)CC[C@H](O[C@@H]6O[C@H](CO)[C@@H](O)[C@H](O)[C@H]6O)C(C)(C)[C@@H]5CC[C@]43C)[C@H]12 :: 341.93 ± 186.39**★
C[C@H]1[C@H](C)CC[C@]2(C(=O)O[C@@H]3OC[C@H](O)[C@H](O)[C@H]3O)CC[C@]3(C)C(=CC[C@@H]4[C@@]5(C)CC[C@H](O[C@@H]6OC[C@H](O)[C@H](O)[C@H]6O)C(C)(C)[C@@H]5CC[C@]43C)[C@H]12 :: 413.00 ± 218.95*★★

Now take the following compound into account.
Qu. Need platelets, Day 5 after modeling of CC1(C)CC[C@]2(C(=O)O[C@@H]3OC[C@H](O)[C@H](O)[C@H]3O)CC[C@]3(C)C(=CC[C@@H]4[C@@]5(C)CC[C@H](O[C@@H]6OC[C@H](O)[C@H](O)[C@H]6O)C(C)(C)[C@@H]5CC[C@]43C)[C@@H]2C1 , thanks.
Ans. 385.73 ± 198.30**★
